assay: folding stability dG unfold from chymotrypsin proteolysis; higher = more stable
Mark satisfied for reported folding stability dG unfold of 1 kcal/mol or greater; mark not satisfied for anything smaller.

RECORD SEQUENCE | ANSWER LABEL
SAGGPKKAIEILKKEGFTIKSVDPKKKKVIATPKETDIPIEIYVIGDDKVLIVEYLKGKPIIKEFKKSAGGS [r16_197_TrMRF] | not satisfied

[in] Check this sequence for folding stability dG unfold at or above 1 kcal/mol: SAGGSAGGAPQGSTSSLTDPSTGLRYASTNPPGTSSSFTFPPSVSPEEVAARLRAQGVAGLNLSSAGGSAGG [r6_83_JUSTAS]
[out] not satisfied

[in] State whether the measured folding stability dG unfold reaches 1 kcal/mol, counting equality as reaching it, for SAGGVIGTRKKVNKIEKPVPEGATTTPSIIGNTTILTTTAPDGSTVTVTLTKTEPIPGKPDVSEKYEASAGG [r13_804_JUSTAS]
[out] not satisfied

[in] Say whether SAGGSEKIEVEVERREDGYLVLRVRLELFDENGELVEEIEIEVVLPREELEKMSLEELLKRLLEELSAGGSA [r2_421_TrROS_Hall] shows folding stability dG unfold of 1 kcal/mol or more.
[out] satisfied

[in] Determine whether this sequence has folding stability dG unfold no lower than 1 kcal/mol: SAGGSAKIEEIASLPAEEIAEAFGLTVISATVERFEDGTVVLTVEIAPPLGPPIRVTFVFGVDPEKSAGGSA [r15_805_TrMRF]
[out] satisfied

[in] Decide: folding stability dG unfold of SAGGMVLVIVSDLKPGELNEIIEKLKKEGLEVKLFLPNGEEIDADPNIEDLPEDVPVVLLVRHPDKSSAGGS [r16_31_TrMRF] >= 1 kcal/mol?
[out] satisfied

====

assay: folding stability dG unfold (combined trypsin and chymotrypsin); higher = more stable
Threshold check on folding stability dG unfold: at or above 2 kcal/mol gives fulfilled, strictly below gives not fulfilled.

RECORD SEQUENCE | ANSWER LABEL
SAGGSAGGSAGGMTTVTLTLTTELEVKDPEGKLHRETVTVTVTVPVPPSTLTDTTDLVSSAGGSAGGSAGGS [r10_168_JUSTAS] | not fulfilled
SAGKEKEVKEVTIKIKIYVTNKNGEKKEITIEVKAKNKEDLLEALKKLGLSVEELKEKFPNIKIVEIEPSAG [r5_430_TrROS_Hall] | fulfilled
SAGGSAGGSAGKKKKKPKPIVLVIKVKTKEEAEKLAEKLKELGFKVEIVEKKDGYLVIKLSAGGSAGGSAGG [r17_323_TrROS_Hall] | fulfilled
SMSEVVEESEFNGEKVITIKVTLPDGTPVTVTITLSPEGEGTVTTVPPSSSTSTTTTVPVSQVDEVLEALSA [r9_91_JUSTAS] | not fulfilled

[in] Answer whether folding stability dG unfold of SAGGSAGGSAGGEKIIKVHPDNIEAFLKEAKEKGYKVILFPNGEAIVNGKKVKIISDPKSAGGSAGGSAGGS [r10_930_TrMRF] is greater than or equal to 2 kcal/mol.
[out] not fulfilled

[in] Given SAGEFEVLEVREVDGRLVVRLALPDKPEVVTIVLERHPDGSVRALIEAEGEAADRIVEALPELDEVVVASAG [r5_933_TrMRF] , state whether its folding stability dG unfold is at least 2 kcal/mol.
[out] fulfilled

[in] Dear colleague, could you confirm whether SAGGSAGGSAEDVVLKVKIEIPSSDGTLLEIDEAIYNPKPGTLHFKIRSPDGSEFEIEIPLDSAGGSAGGSA [r18_370_TrMRF] has folding stability dG unfold at or above 2 kcal/mol?
[out] not fulfilled

====

experiment: folding stability dG unfold from chymotrypsin proteolysis; higher = more stable
REPORTED METRIC: folding stability dG unfold (kcal/mol)
Express your answer in kcal/mol, writing the number without its unit.

Known folding stability dG unfold results, listed for orientation:
RECORD SEQUENCE | folding stability dG unfold, kcal/mol
SAGGSAGGSAGGVIVLKSDNSVIIITKKVYTENGKPKKTIIEKKNLKKKPPKPLSIEIISAGGSAGGSAGGS [r10_1043_JUSTAS] | 0.374
SAGGKDVKPIPVRIKIWYPDDGKPIHEIPVSAYQMDDKIHITFESPELLQFAKELAQKKGFKVEIEPSAGGS [r16_327_TrROS] | 0.751
SAGGSAMREIRVGDTVVRILSIDPSTGEVHIAVREDLPPETIEAARRALEEAGLRFRVEPVPEELLSAGGSA [r15_570_TrMRF] | 2.33
SAGGSALPPGQEVEITIMIMVMIYNPENGRMWMVMASVEIEIRVDPKNGKLEIKIKKISISIFPMDSAGGSA [r15_517_TrROS] | 5.8
SAGGTVEEIKEKLEEAGWEVVKVEKKEDGSITVTVRRKDGKELKIEIDLKNEEVRKALAELLPEEELSAGGS [r16_821_TrROS_Hall] | 3.22
SAGGSAGGSMEVNLKVTVTYPDGTVVELEIPKVSTEDGKSVEDVAKEIEALPDVKEVEVEIVESAGGSAGGS [r12_199_JUSTAS] | 2.03

Entry SAGGSAGGSMEVDIEVETLETEVSFLPGDLIKVKKLVKITLPNGEVLEEETEEIIPKSEIGKLSAGGSAGGS [r12_1028_JUSTAS] — recorded folding stability dG unfold = -0.00695

====

assay: folding stability dG unfold from trypsin proteolysis; higher = more stable
REPORTED METRIC: folding stability dG unfold
Provide the measurement as a number trailed by its unit.

RECORD SEQUENCE | folding stability dG unfold
SAGGSAGGSAGGDPVTVLSIKPEPGKLTVTTNTRADGSTTTTTVSPENPPNIKPGEPLSSAGGSAGGSAGGS [r10_834_JUSTAS] | 0.552 kcal/mol
SAGMKITVVELDGKSPEELSEEELKKLAEELLKELFPDVKKVKKVTVKVERLPDGRLVLVEVEIEVEEPSAG [r5_526_TrROS_Hall] | 2.18 kcal/mol
SAGGSAGGSKIPIHIWVPPGGSPKKAKERIRRYIREQMPPGNKDMPIDDIKIDVHVMPPGQPVSAGGSAGGS [r12_384_TrROS] | -0.427 kcal/mol
SAGMPDVPPVPRTFRLEIEIEVPAEDPELARELAEEIREEIRRLGAVRTEVEIDPEPGRVRVRVEFVEGSAG [r5_512_TrMRF] | 1.36 kcal/mol
SAMILLIKIENKNDGKEFIIEITPNKITIYDKKTGKKYEITVDGNTITIKINGKTYKAKIKEVIPEEELSAG [r14_208_TrROS_Hall] | 3.23 kcal/mol

Reported folding stability dG unfold for SAGGSAGGSAGGMTLEEVKKALEELGIKEENQTVTIELEDGSKVKITVKDGKVVLEVEPSAGGSAGGSAGGS [r10_604_TrROS_Hall] was 2.81 kcal/mol

folding stability dG unfold measured on SAMANITANYYDPETGKVLAKDLPLPNGDEVHVTPNPVTGTVTVEWDGPEEALEVIKAALPPDWKIYPLSAG [r14_252_TrMRF] = 0.712 kcal/mol

====

assay: folding stability dG unfold from trypsin proteolysis; higher = more stable
REPORTED METRIC: folding stability dG unfold (kcal/mol)
Provide the reading as a plain figure in kcal/mol.

RECORD SEQUENCE | READOUT UNITS | folding stability dG unfold
SAGGSAGGSAGGPNNKPKPKQVTFDIEIEDIEIDPEHGLISIEIRFPDGGKEITARIPISAGGSAGGSAGGS [r10_427_TrROS] | kcal/mol | 0.14
SAGGSAGGSAGGSMKVEKFTEIITTPDGKPELIVEKEKTTTPNGGTKTTVTKIIPAKLLSAGGSAGGSAGGS [r4_117_JUSTAS] | kcal/mol | -0.306
SAGGSAGGNPEDKERRYVRMPIKVTVPNPNGKKIKIPIYMPVGDPERMMPRAIKFARELAKKGLSAGGSAGG [r6_903_TrROS] | kcal/mol | -0.301

Please examine the following record next.
get_value(item= SAGKEIIIPFRDIPPKYIKNQLKKFPPGKEIRIMFPGPEVADYLKEKGFPVRPERIKPITPDDMAKMMNSAG [r5_354_TrROS] , readout=folding stability dG unfold) returns -0.149

====

test: folding stability dG unfold (combined trypsin and chymotrypsin); higher = more stable
Measured folding stability dG unfold values are reported for all entries that follow.
// units = kcal/mol; emit number, no label

RECORD SEQUENCE | REPORTED METRIC | MEASURED RESULT
SAGGIKIEIMFLMPLKDVRSIIDEIAKMPGIKITDVEVDIIPFENGTVMFRVTFEIEIYDPENGEPISAGGS [r8_374_TrROS] | folding stability dG unfold | 4.27
SAGGSPPFRIKIDEIEILPNGIIQVTFKIDNGWPMTILIQMDPDGKVTIEIQFPGNGQPFEFELPISAGGSA [r2_361_TrROS] | folding stability dG unfold | 3.27
SAGGSAGGSAGGSMKYITITETTEEEVLVLYYDPETGEPVREEKVLRTVTKTRTLPPDLKSAGGSAGGSAGG [r7_573_JUSTAS] | folding stability dG unfold | 0.189

The reported folding stability dG unfold of the sequence SAMKVEIVEVKKNEDGSEEITIKIVVPDDKDMTPEELAALLKKEFGVDEVKVEVVDENGYKVITITIKRSAG [r14_228_TrROS_Hall] was 3.9
